Tested on: KM12
Test: NCI tumour cell line growth inhibition, 48 h
Active and inactive are the calls of the source. Rule as the data show it: active = GI50 up to about 1.1 µM and inactive = higher.
So I've got a bunch of compounds here, and I need their GI50 values.

Exercise: What value of measured GI50 is listed for CC(=O)OC1[C@@H](OC(C)=O)CN(OCc2ccccc2)C[C@H]1OC(C)=O (stereo partly drawn) ?
Solution: > 100 µM (inactive)

Exercise: What value of measured GI50 is listed for `CCOP(=O)(Cc1nc(C#N)c(N)o1)OCC` ?
Solution: > 100 µM (inactive)

Exercise: What value of measured GI50 is listed for Nc1ncnc2c1ncn2C1OC(CSC(F)F)C(O)C1O (stereo not drawn) ?
Solution: > 100 µM (inactive)

Exercise: What value of measured GI50 is listed for `Oc1cc(Br)cc2cc(Cl)cnc12` ?
Solution: 4.06 µM (inactive)

Exercise: What value of measured GI50 is listed for COc1cc2c(c(O)c1OC)C(O)C1CCC(=O)N1C2c1cccc2ccccc12 (stereo not drawn) ?
Solution: 34.9 µM (inactive)

Exercise: What value of measured GI50 is listed for `CCOC(=O)c1sc2c(c1OC(=O)c1ccc(Cl)cc1Cl)c(=O)n(-c1ccccc1)c(=S)n2-c1ccccc1` ?
Solution: 5.73 µM (inactive)

Exercise: What value of measured GI50 is listed for COc1ccccc1C(=O)OCC1CCCN2CCCCC12 (stereo not drawn) ?
Solution: 18.2 µM (inactive)

Exercise: What value of measured GI50 is listed for `Cc1cc(/N=C/c2ccc(Cl)cc2)n(-c2ccccc2)n1` ?
Solution: 23.4 µM (inactive)

Exercise: What value of measured GI50 is listed for `NCc1ccccc1.O=C(O)NCc1ccccc1` ?
Solution: 26.2 µM (inactive)

Exercise: What value of measured GI50 is listed for `O=S(=O)(/N=c1/[nH]c2ccccc2n1S(=O)(=O)c1ccccc1)c1ccccc1` ?
Solution: 33.1 µM (inactive)

Exercise: What value of measured GI50 is listed for `Cn1c2ccccc2c(=NNc2ccc(C(=O)O)cc2)c2ccccc21` ?
Solution: 15.7 µM (inactive)

Exercise: What value of measured GI50 is listed for `O=C(NNc1nc(-c2ccccc2)cs1)Nc1ccccc1` ?
Solution: 32.9 µM (inactive)

Exercise: What value of measured GI50 is listed for `C[N+]1(C)C/C(=C\c2ccc(O)cc2)C(=O)/C(=C/c2ccc(O)cc2)C1` ?
Solution: 45.1 µM (inactive)

Exercise: What value of measured GI50 is listed for O=C1OC(C2Cc3ccc4c(c3C2=O)CCCC4)c2ccccc21 (stereo not drawn) ?
Solution: 44 µM (inactive)

Exercise: What value of measured GI50 is listed for `CC(C)(C)OC(=O)N1CCc2c(n(C/C=C/c3ccccc3)[nH]c2=O)C1` ?
Solution: > 100 µM (inactive)

Exercise: What value of measured GI50 is listed for `Cc1ccc(CC(=O)Nc2ccc(NC(=O)CNC(=O)/C=C/c3ccc(-c4ccccc4)cc3)cc2C(=O)c2ccccc2)cc1` ?
Solution: 3.56 µM (inactive)

Exercise: What value of measured GI50 is listed for `COc1ccc2ccc3oc(=O)c(C)cc3c2c1` ?
Solution: > 100 µM (inactive)

Exercise: What value of measured GI50 is listed for CC/C=C/C(CC)C/C(C)=C\[C@]1(CC)C[C@H](CC)[C@H](CC(=O)O)OO1 (stereo partly drawn) ?
Solution: 0.0991 µM (active)

Exercise: What value of measured GI50 is listed for CC(N)C(=O)c1ccc(O)cc1 (stereo not drawn) ?
Solution: > 100 µM (inactive)

Exercise: What value of measured GI50 is listed for `CC(C)(C)/C(O)=C\c1nc2cc(F)c(F)cc2[nH]c1=O` ?
Solution: > 100 µM (inactive)

Exercise: What value of measured GI50 is listed for `O=S1(=O)CS(=O)(=O)OCCCCCO1` ?
Solution: > 100 µM (inactive)

Exercise: What value of measured GI50 is listed for O=C(O)C12CCC(CC1=O)C2 (stereo not drawn) ?
Solution: > 100 µM (inactive)

Exercise: What value of measured GI50 is listed for `CCOC(=O)NC(Nc1ccc([N+](=O)[O-])cc1)(C(F)(F)F)C(F)(F)F` ?
Solution: 82.2 µM (inactive)

Where do the numbers come from? From ChEMBL document CHEMBL1201862.
